Where these numbers come from: the supplement of paper PMC11061612

System: SK-GT-2 (Gastric Carcinoma);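 further: after 72 h of two-drug dosing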
Test: Bliss excess, mean over the matrix (fraction); higher = more synergy
MEASUREMENT KIND: Bliss excess
Respond numerically, and do not add a unit to the figure.

CN(CCO)CC[C@H](CSc1ccccc1)Nc1ccc(S(=O)(=O)NC(=O)c2ccc(N3CCC([C@@H](O)c4ccccc4-c4ccc(Cl)cc4)CC3)cc2)cc1S(=O)(=O)C(F)(F)F [AZD4320] + C[C@@H]1COCCN1C2=NC(=NC(=C2)C3(CC3)[S@](=N)(=O)C)C4=C5C=CNC5=NC=C4 [AZD6738] (first compound max 1 µM, 7x7, partner max 10 µM) = 0.0109
Cc1c2c(nn1C)CSCc1cc(n(C)n1)CSc1cc(c3ccccc3c1)OCCCc1c(C(=O)O)n(C)c3c-2c(Cl)ccc13 [AZD5991] + CCN(CCO)CCCOc1ccc2c(Nc3cc(CC(=O)Nc4cccc(F)c4)[nH]n3)ncnc2c1 [AZD2811] (first compound max 1 µM, 7x7, partner max 1 µM) = 0.039

q: Query (compound): NC1(C(=O)N[C@@H](CCO)c2ccc(Cl)cc2)CCN(c2ncnc3[nH]ccc23)CC1 [Capivasertib] + CC(=O)c1c(C)c2cnc(Nc3ccc(N4CCNCC4)cn3)nc2n(C2CCCC2)c1=O [Palbociclib] (first compound max 10 µM, 7x7, partner max 10 µM) ; field requested: Bliss excess
a: 0.0012

* * *

Tested on: SK-GT-2 (Gastric Carcinoma);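 further: after 72 h of two-drug dosing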
Assay: Bliss excess, mean over the matrix (fraction); higher = more synergy
MEASUREMENT KIND: Bliss excess
Respond numerically, and do not add a unit to the figure.

Known results for compounds:
COc1cccc(OCCCN)c1-c1cc(Nc2cnc(C#N)cn2)n[nH]1 [Prexasertib] + C=CCn1c(=O)c2cnc(Nc3ccc(N4CCN(C)CC4)cc3)nc2n1-c1cccc(C(C)(C)O)n1 [AZD1775] (first compound max 1 µM, partner max 1 µM) = 0.0286
Cc1cc2ncnn2cc1Nc1ncc2c(n1)n(C1CCOCC1)c(=O)n2C [AZD7648] + CN(C)CCCOc1ccc(-c2ccc3ncc4c(c3c2)n(C2CCOCC2)c(=O)n4C)cn1 [AZD0156] (first compound max 10 µM, 7x7, partner max 1 µM) = -0.0011

q: Query (compound): COc1nnc2ccc(N3CCC(c4ccc(OCCN5CCN(C)C(=O)[C@H]5C)cc4)CC3)nn12 [AZD5153] + CC1(C)CCC(CN2CCN(c3ccc(C(=O)NS(=O)(=O)c4ccc(NCC5CCOCC5)c([N+](=O)[O-])c4)c(Oc4cnc5[nH]ccc5c4)c3)CC2)=C(c2ccc(Cl)cc2)C1 [Venetoclax] (first compound max 1 µM, 7x7, partner max 1 µM) ; field requested: Bliss excess
a: -0.028

q: How about CC(=O)c1c(C)c2cnc(Nc3ccc(N4CCNCC4)cn3)nc2n(C2CCCC2)c1=O [Palbociclib] + Cc1c2c(nn1C)CSCc1cc(n(C)n1)CSc1cc(c3ccccc3c1)OCCCc1c(C(=O)O)n(C)c3c-2c(Cl)ccc13 [AZD5991] (first compound max 10 µM, 7x7, partner max 1 µM) ?
a: -0.021

q: How about Cn1cnc2c(F)c(Nc3ccc(Br)cc3Cl)c(C(=O)NOCCO)cc21 [Selumetinib] + C=CCn1c(=O)c2cnc(Nc3ccc(N4CCN(C)CC4)cc3)nc2n1-c1cccc(C(C)(C)O)n1 [AZD1775] (first compound max 10 µM, partner max 1 µM) ?
a: -0.0872

* * *

Test system: KYSE-270 (Esophageal Squamous Cell Carcinoma)
Experiment: combination Emax (second highest fraction inhibited in the dose matrix, 72 h); higher = more inhibition; extreme values may be limits of the assay
MEASUREMENT KIND: combination Emax
Respond numerically, and do not add a unit to the figure.

CC1(C)CCC(CN2CCN(c3ccc(C(=O)NS(=O)(=O)c4ccc(NCC5CCOCC5)c([N+](=O)[O-])c4)c(Oc4cnc5[nH]ccc5c4)c3)CC2)=C(c2ccc(Cl)cc2)C1 [Venetoclax] + CN(C)CCCOc1ccc(-c2ccc3ncc4c(c3c2)n(C2CCOCC2)c(=O)n4C)cn1 [AZD0156] (first compound max 1 µM, 7x7, partner max 1 µM) = 0.785

q: # returns recorded combination Emax (system: KYSE-270 (Esophageal Squamous Cell Carcinoma)) for C[C@@H]1COCCN1c1cc(C2([S@](C)(=N)=O)CC2)nc(-c2ccnc3[nH]ccc23)n1 [AZD6738] + C1CC(C1)(C(=O)[O-])C(=O)[O-].N.N.[Pt+2] [Carboplatin] (first compound max 10 µM, 7x7, partner max 10 µM)
a: 0.779

q: How about CN(C)CCCOc1ccc(-c2ccc3ncc4c(c3c2)n(C2CCOCC2)c(=O)n4C)cn1 [AZD0156] + C[C@@H]1COCCN1C2=NC(=NC(=C2)C3(CC3)[S@](=N)(=O)C)C4=C5C=CNC5=NC=C4 [AZD6738] (first compound max 1 µM, 7x7, partner max 10 µM) ?
a: 0.914

q: How about CCN(CCO)CCCOc1ccc2c(Nc3cc(CC(=O)Nc4cccc(F)c4)[nH]n3)ncnc2c1 [AZD2811] + C=CCn1c(=O)c2cnc(Nc3ccc(N4CCN(C)CC4)cc3)nc2n1-c1cccc(C(C)(C)O)n1 [AZD1775] (first compound max 1 µM, partner max 1 µM) ?
a: 0.63

* * *

System: RPMI-8226 (Plasma Cell Myeloma)
Assay: combination Emax (second highest fraction inhibited in the dose matrix, 72 h); higher = more inhibition; extreme values may be limits of the assay
Lab note: class by combination Emax, see class 0 = under 0.5, class 1 = from 0.5 up to 0.9, class 2 = 0.9 and over

CC(=O)c1c(C)c2cnc(Nc3ccc(N4CCNCC4)cn3)nc2n(C2CCCC2)c1=O [Palbociclib] + Cn1cnc2c(F)c(Nc3ccc(Br)cc3Cl)c(C(=O)NOCCO)cc21 [Selumetinib] (first compound max 10 µM, 7x7, partner max 10 µM) = class 1
CN(CCO)CC[C@H](CSc1ccccc1)Nc1ccc(S(=O)(=O)NC(=O)c2ccc(N3CCC([C@@H](O)c4ccccc4-c4ccc(Cl)cc4)CC3)cc2)cc1S(=O)(=O)C(F)(F)F [AZD4320] + C[C@@H]1COCCN1C2=NC(=NC(=C2)C3(CC3)[S@](=N)(=O)C)C4=C5C=CNC5=NC=C4 [AZD6738] (first compound max 1 µM, 7x7, partner max 10 µM) = class 2
CC1(C)CCC(CN2CCN(c3ccc(C(=O)NS(=O)(=O)c4ccc(NCC5CCOCC5)c([N+](=O)[O-])c4)c(Oc4cnc5[nH]ccc5c4)c3)CC2)=C(c2ccc(Cl)cc2)C1 [Venetoclax] + C=CCn1c(=O)c2cnc(Nc3ccc(N4CCN(C)CC4)cc3)nc2n1-c1cccc(C(C)(C)O)n1 [AZD1775] (first compound max 1 µM, partner max 1 µM) = class 1
CC1(C)CCC(CN2CCN(c3ccc(C(=O)NS(=O)(=O)c4ccc(NCC5CCOCC5)c([N+](=O)[O-])c4)c(Oc4cnc5[nH]ccc5c4)c3)CC2)=C(c2ccc(Cl)cc2)C1 [Venetoclax] + Cc1cc2ncnn2cc1Nc1ncc2c(n1)n(C1CCOCC1)c(=O)n2C [AZD7648] (first compound max 1 µM, 7x7, partner max 10 µM) = class 0
CC1(C)CCC(CN2CCN(c3ccc(C(=O)NS(=O)(=O)c4ccc(NCC5CCOCC5)c([N+](=O)[O-])c4)c(Oc4cnc5[nH]ccc5c4)c3)CC2)=C(c2ccc(Cl)cc2)C1 [Venetoclax] + C[C@@H]1COCCN1C2=NC(=NC(=C2)C3(CC3)[S@](=N)(=O)C)C4=C5C=CNC5=NC=C4 [AZD6738] (first compound max 1 µM, 7x7, partner max 10 µM) = class 2
C[C@@H]1COCCN1c1cc(C2([S@](C)(=N)=O)CC2)nc(-c2ccnc3[nH]ccc23)n1 [AZD6738] + O=C(c1cc(Cc2n[nH]c(=O)c3ccccc23)ccc1F)N1CCN(C(=O)C2CC2)CC1 [Olaparib] (first compound max 10 µM, 7x7, partner max 10 µM) = class 2
COc1nnc2ccc(N3CCC(c4ccc(OCCN5CCN(C)C(=O)[C@H]5C)cc4)CC3)nn12 [AZD5153] + C=CCn1c(=O)c2cnc(Nc3ccc(N4CCN(C)CC4)cc3)nc2n1-c1cccc(C(C)(C)O)n1 [AZD1775] (first compound max 1 µM, partner max 1 µM) = class 1
C[C@@H](c1ccc2nccn2c1)n1nnc2ncc(-c3cnn(C)c3)nc21 [Savolitinib] + CC1(C)CCC(CN2CCN(c3ccc(C(=O)NS(=O)(=O)c4ccc(NCC5CCOCC5)c([N+](=O)[O-])c4)c(Oc4cnc5[nH]ccc5c4)c3)CC2)=C(c2ccc(Cl)cc2)C1 [Venetoclax] (first compound max 1 µM, 7x7, partner max 1 µM) = class 0
COc1cccc(OCCCN)c1-c1cc(Nc2cnc(C#N)cn2)n[nH]1 [Prexasertib] + CCc1c2c(nc3ccc(O)cc13)-c1cc3c(c(=O)n1C2)COC(=O)[C@]3(O)CC [SN-38] (first compound max 1 µM, 7x7, partner max 0.3 µM) = class 2
COc1nnc2ccc(N3CCC(c4ccc(OCCN5CCN(C)C(=O)[C@H]5C)cc4)CC3)nn12 [AZD5153] + CC1(C)CCC(CN2CCN(c3ccc(C(=O)NS(=O)(=O)c4ccc(NCC5CCOCC5)c([N+](=O)[O-])c4)c(Oc4cnc5[nH]ccc5c4)c3)CC2)=C(c2ccc(Cl)cc2)C1 [Venetoclax] (first compound max 1 µM, 7x7, partner max 1 µM) = class 1

As a next step, examine the molecule that follows.
q: Sort Cc1cc2ncnn2cc1Nc1ncc2c(n1)n(C1CCOCC1)c(=O)n2C [AZD7648] + CN(C)CCCOc1ccc(-c2ccc3ncc4c(c3c2)n(C2CCOCC2)c(=O)n4C)cn1 [AZD0156] (first compound max 10 µM, 7x7, partner max 1 µM) into one of the categories.
a: class 0
